Listed here are substances together with their documented Phage binding ELISA Backgroud signal.
System: anti-CD28 scFv
MEASUREMENT DESCRIPTION: Phage binding ELISA (panning) of clonal phage on anti-CD28 scFv, with or without CD28 soluble protein
STATED CONDITIONS: clonal phage supernatant; background signal
Procedure: Clonal phage were harvested as crude supernatants and screened via standard enzyme linked immunosorbent assays (ELISAs). […] Prior to the addition of clonal phage, wells were incubated with blocking buffer and CD28 soluble protein or blocking buffer alone. Without washing or aspirating, clonal phage supernatants were then added to the wells and incubated for a short time. Wells were then washed followed by detection of bound phage using a horse radish peroxidase conjugated anti-M13 antibody. […]

Worked examples, 5 substances total:
SUBSTANCE	Phage binding ELISA Backgroud signal
Phage-178 (LDWCPRDLWHVCFF)	0.176
Phage-308 (MDWCPKSLWAECFN)	0.395
Phage-365 (MDWCPSYLWPVCFN)	0.079
Phage-160 (MHWCPRALWHECFN)	0.070
Phage-375 (MNWCPRALWHECFL)	0.085

[in] Write down the reported Phage binding ELISA Backgroud signal of Phage-255 (MDWCPRHLWSVCFN) , test system: anti-CD28 scFv.
[out] 0.064

[in] Fill in the recorded Phage binding ELISA Backgroud signal for this substance, with anti-CD28 scFv as test system: Phage-218 (TFGCPTTMWNRCFA)
[out] 0.117

###

System: anti-CD28 scFv
MEASUREMENT DESCRIPTION: Phage binding ELISA (panning) of clonal phage on anti-CD28 scFv, with or without CD28 soluble protein
STATED CONDITIONS: Phage binding ELISA; clonal phage supernatant, background wells
# Backgroud signal values compiled below
Answer field: number only, no words.

SUBSTANCE	ASSAY VALUE
Phage-148 (MHWCPEYLWNECFA)	0.074
Phage-117 (MDWCPRYLWFECFS)	0.079

[in] Reported Backgroud signal, substance Phage-146 (MDWCPRHLWSECFY) : ____
[out] 0.136

[in] May I ask what Backgroud signal has been recorded for Phage-118 (MDWCPRHLWDECFF) ?
[out] 0.074

###

This listing pairs substances with measured Phage binding ELISA CD28 scFv signal in presence of CD28.
Test system: anti-CD28 scFv
MEASUREMENT DESCRIPTION: Phage binding ELISA (panning) of clonal phage on anti-CD28 scFv, with or without CD28 soluble protein
STATED CONDITIONS: clonal phage supernatant on captured anti-CD28 scFv pre-incubated with CD28 soluble protein
Description: Clonal phage were harvested as crude supernatants and screened via standard enzyme linked immunosorbent assays (ELISAs). […] Prior to the addition of clonal phage, wells were incubated with blocking buffer and CD28 soluble protein or blocking buffer alone. Without washing or aspirating, clonal phage supernatants were then added to the wells and incubated for a short time. Wells were then washed followed by detection of bound phage using a horse radish peroxidase conjugated anti-M13 antibody. […]
Could you respond with only the numeric value?

Sample records with Phage binding ELISA CD28 scFv signal in presence of CD28:
SUBSTANCE	TARGET OF ASSAY	ASSAY VALUE
Phage-82 (MDWCPRDLWTECFA)	anti-CD28 scFv	0.151
Phage-78 (MDWCPRHLWHECFN)	anti-CD28 scFv	0.704
Phage-76 (MDWCPRYLWSDCFA)	anti-CD28 scFv	1.530

[in] // lookup Phage binding ELISA CD28 scFv signal in presence of CD28 for Phage-68 (MDWCPMYMWYECFA)
[out] 0.358

[in] State the recorded Phage binding ELISA CD28 scFv signal in presence of CD28 for this entry: Phage-65 (MDWCPMYLWNECFN)
[out] 0.471

[in] Name the recorded Phage binding ELISA CD28 scFv signal in presence of CD28 for Phage-72 (MFWCPTTMWNRCFT) .
[out] 0.338

[in] Would you mind telling me what Phage binding ELISA CD28 scFv signal in presence of CD28 value was observed for Phage-74 (MDWCPRDMWLFCYN) ?
[out] 1.023

[in] Look at this substance and give its reported Phage binding ELISA CD28 scFv signal in presence of CD28. Phage-47 (MAWCPVYLWHECFN)
[out] 0.351

[in] Give the measured Phage binding ELISA CD28 scFv signal in presence of CD28 of Phage-67 (MNWCPTALWHVCFN) .
[out] 0.169

[in] Returns the measured Phage binding ELISA CD28 scFv signal in presence of CD28 for the input substance. Input: Phage-55 (QDWCPRHMWSFCFH)
[out] 0.081

[in] Any idea what its Phage binding ELISA CD28 scFv signal in presence of CD28 is? The substance is Phage-77 (MDWCPFYLWDECFN)
[out] 0.291

[in] Request the reported Phage binding ELISA CD28 scFv signal in presence of CD28 associated with Phage-84 (MDWCPKYLWSVCFF)
[out] 0.826

[in] // returns reported Phage binding ELISA CD28 scFv signal in presence of CD28 for input Phage-46 (MHWCPIDLWAECYA)
[out] 0.225

[in] Could you tell me which Phage binding ELISA CD28 scFv signal in presence of CD28 is on file for Phage-81 (MDWCPRFLWSVCFN) ?
[out] 1.151

###

System: anti-CD28 scFv
MEASUREMENT DESCRIPTION: Phage binding ELISA (panning) of clonal phage on anti-CD28 scFv, with or without CD28 soluble protein
STATED CONDITIONS: clonal phage supernatant; background signal
ATTRIBUTE MEASURED: Phage binding ELISA Backgroud signal
Please give only the number in your answer, with no unit.

SUBSTANCE	TARGET OF ASSAY	ATTRIBUTE MEASURED	ASSAY VALUE
Phage-263 (MDWCPRHMWHECFA)	anti-CD28 scFv	Phage binding ELISA Backgroud signal	0.074
Phage-74 (MDWCPRDMWLFCYN)	anti-CD28 scFv	Phage binding ELISA Backgroud signal	0.097
Phage-168 (MDWCPKDLWHECFN)	anti-CD28 scFv	Phage binding ELISA Backgroud signal	0.073

[in] Looking for the measured Phage binding ELISA Backgroud signal of Phage-39 (MDWCPMHLWHQCFN) , can you help?
[out] 0.073

[in] What does the data say about its Phage binding ELISA Backgroud signal? Entry: Phage-378 (MHWCPLHLWNECFA)
[out] 0.065

[in] // returns reported Phage binding ELISA Backgroud signal for input Phage-188 (MDWCPSYLWDQCFF)
[out] 0.100

[in] What Phage binding ELISA Backgroud signal value was documented for this substance, Phage-42 (MDWCPRHLWVHCFN) ?
[out] 0.071

###

System: anti-CD28 scFv
MEASUREMENT DESCRIPTION: Phage binding ELISA (panning) of clonal phage on anti-CD28 scFv, with or without CD28 soluble protein
STATED CONDITIONS: clonal phage supernatant; background (no anti-CD28 scFv signal)
Consider the following substances and their measured Phage binding ELISA Backgroud signal readings.
# answer = number (no unit)

SUBSTANCE	Phage binding ELISA Backgroud signal
Phage-424 (ITQCPSTMWNRCSV)	0.067
Phage-411 (MSWCPRFMWHECFN)	0.081
Phage-423 (INLCPTPMWNRCWL)	0.119
Phage-406 (MNWCPIDMWTECFN)	0.245
Phage-407 (MNWCPIHMWNQCFA)	0.085

[in] Look up Phage binding ELISA Backgroud signal with anti-CD28 scFv for this substance: Phage-452 (MDWCPRDWWHMCFN)
[out] 0.100

[in] # get_value(readout= Phage binding ELISA Backgroud signal, system= anti-CD28 scFv) for Phage-422 (MYWCPINMWDYCYA)
[out] 0.122

[in] What value of Phage binding ELISA Backgroud signal on anti-CD28 scFv does Phage-408 (MFWCPKDMWAECFA) have?
[out] 0.099

[in] Query for anti-CD28 scFv: what Phage binding ELISA Backgroud signal does the record show for Phage-431 (MAWCPADQWHECFN) ?
[out] 0.076

[in] Item Phage-443 (MDWCPMTRWNDCYF) with anti-CD28 scFv - Phage binding ELISA Backgroud signal?
[out] 0.081

[in] API: value(readout= Phage binding ELISA Backgroud signal, system= anti-CD28 scFv, query= Phage-404 (MDWCPRDMWTSCFN) )
[out] 0.100

[in] Give recorded Phage binding ELISA Backgroud signal with anti-CD28 scFv for the following substance: Phage-401 (MDWCPLDMWVLCFA)
[out] 0.085

[in] Recall the recorded Phage binding ELISA Backgroud signal for Phage-400 (MHWCPTYMWSECFA) with anti-CD28 scFv and state it.
[out] 0.070

[in] Identify the measured Phage binding ELISA Backgroud signal of Phage-398 (MDWCPRNMWNECFF) for anti-CD28 scFv.
[out] 0.095
